Entries annotated with measured self-splicing fitness (ln)
assay: self-splicing fitness, log relative to wild type (ln ratio); higher = more splicing; Tetrahymena group I intron in knt gene, E. coli kanamycin selection, DiMSum; sequences stand for … in CUCUCU…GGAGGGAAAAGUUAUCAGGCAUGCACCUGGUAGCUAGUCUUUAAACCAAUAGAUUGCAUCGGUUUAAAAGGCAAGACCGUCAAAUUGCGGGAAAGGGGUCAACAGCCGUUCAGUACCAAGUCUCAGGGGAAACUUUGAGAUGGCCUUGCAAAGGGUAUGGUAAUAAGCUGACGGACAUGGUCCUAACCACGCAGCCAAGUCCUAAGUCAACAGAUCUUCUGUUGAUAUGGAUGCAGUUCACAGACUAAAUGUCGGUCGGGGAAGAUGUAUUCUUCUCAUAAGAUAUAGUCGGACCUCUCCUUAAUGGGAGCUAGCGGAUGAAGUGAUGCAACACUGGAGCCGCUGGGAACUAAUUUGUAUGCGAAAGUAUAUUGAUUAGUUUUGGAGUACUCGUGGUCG; conditions: 30 °C;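 further: selection with 25 µg/mL kanamycin versus none on LB agar overnight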
I'd appreciate a reply containing only the number, no unit.

Past entries and their recorded results:
GAGUAGCAAUAUUACGAUAU :: -2.42
AAUUAGCAAUAUUACGUCUA :: -0.734
ACUCAGCAAUAUUACGAGUG :: -1.59
GGCAAGCAAUAUUACGUAAA :: -0.188
GCAAAGCAAUAUUACGGUGC :: -2.45
AUGUAGCAAUAUUACGAUAA :: -1.76
GCAUAGCAAUAUUACGUACU :: -0.89
AAUGAGCAAUAUUACGUUUU :: -3.53

# input // query self-splicing fitness (ln) value for entry `UGGAAGCAAUAUUACGGAAA`
# output -1.8

# input # iterate: `UUCAAGCAAUAUUACGCUUC`
# output -3.09

###

test: self-splicing fitness, log relative to wild type (ln ratio); higher = more splicing; Tetrahymena group I intron in knt gene, E. coli kanamycin selection, DiMSum; sequences stand for … in CUCUCU…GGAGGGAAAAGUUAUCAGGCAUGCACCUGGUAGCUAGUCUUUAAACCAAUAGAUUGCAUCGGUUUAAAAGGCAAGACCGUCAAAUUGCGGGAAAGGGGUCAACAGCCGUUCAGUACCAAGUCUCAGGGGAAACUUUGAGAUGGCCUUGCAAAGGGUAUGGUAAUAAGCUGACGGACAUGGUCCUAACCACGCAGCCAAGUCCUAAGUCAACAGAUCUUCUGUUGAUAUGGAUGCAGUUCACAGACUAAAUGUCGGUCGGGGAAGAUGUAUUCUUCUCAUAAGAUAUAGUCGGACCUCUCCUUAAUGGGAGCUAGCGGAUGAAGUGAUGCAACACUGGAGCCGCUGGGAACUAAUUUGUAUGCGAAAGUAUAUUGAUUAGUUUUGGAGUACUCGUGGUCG; conditions: 30 °C
PROPERTY_LABEL: self-splicing fitness (ln)

CUAGAGCAAUAUUACGUGGA :: -3.21
AUCGAGCAAUAUUACGGCGA :: -1.24

# input Which measured self-splicing fitness (ln) value corresponds to `UAUUAGCAAUAUUACGAAGG` ?
# output -2.18

# input And then `UACUAGCAAUAUUACGGUUC` , what is it?
# output -2.29

# input Also need `CUAGAGCAAUAUUACGCUUA` , thanks.
# output -3.65

# input Now consider `AAAGAGCAAUAUUACGCUAG` and answer again.
# output -2.87

# input Another: `AUGGAGCAAUAUUACGAAUU`
# output -3.14

# input // next record `UAUAAGCAAUAUUACGUAAA`
# output -2.23

# input How about this sequence: `CAAAAGCAAUAUUACGGGCA`
# output -2.88

# input Same question, `ACGAAGCAAUAUUACGUGUU` this time
# output -2.94

# input Another sequence to look at: `CAAAAGCAAUAUUACGCAUG`
# output -3.93

# input Repeat for the following sequence: `ACAAAGCAAUAUUACGAGCU`
# output -0.866
